- TESTED TARGET: T1, β-catenin (UniProt P35222 1-781, limits assumed)
- T1 construct: also called beta-catenin
- T1 sequence (looked up): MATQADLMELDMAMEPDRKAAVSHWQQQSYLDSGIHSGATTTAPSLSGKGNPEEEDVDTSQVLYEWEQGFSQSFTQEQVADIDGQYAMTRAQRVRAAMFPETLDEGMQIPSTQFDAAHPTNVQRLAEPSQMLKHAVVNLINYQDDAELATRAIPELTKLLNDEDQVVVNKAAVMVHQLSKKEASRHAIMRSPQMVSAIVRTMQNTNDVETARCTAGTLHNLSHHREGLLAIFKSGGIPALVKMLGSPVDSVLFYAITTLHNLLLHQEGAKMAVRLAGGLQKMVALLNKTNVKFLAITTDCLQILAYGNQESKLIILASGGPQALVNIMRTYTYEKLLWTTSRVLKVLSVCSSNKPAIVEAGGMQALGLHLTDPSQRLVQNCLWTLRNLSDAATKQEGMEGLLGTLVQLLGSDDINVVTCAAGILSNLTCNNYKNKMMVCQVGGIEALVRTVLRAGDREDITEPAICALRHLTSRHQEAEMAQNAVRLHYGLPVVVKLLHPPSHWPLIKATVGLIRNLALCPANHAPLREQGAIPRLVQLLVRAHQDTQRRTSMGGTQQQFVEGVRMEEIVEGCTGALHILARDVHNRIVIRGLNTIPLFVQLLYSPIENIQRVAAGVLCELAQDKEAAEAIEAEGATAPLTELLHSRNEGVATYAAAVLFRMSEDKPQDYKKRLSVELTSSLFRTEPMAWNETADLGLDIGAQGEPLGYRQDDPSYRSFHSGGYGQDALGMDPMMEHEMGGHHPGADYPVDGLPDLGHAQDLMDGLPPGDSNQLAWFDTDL
- EXPERIMENTAL DETAILS: ALPHA Screen (BCL9/β-catenin);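 also: bead proximity readout with the polypeptide linked to donor beads and β-catenin fixed on acceptor beads, their binding bringing the beads close enough to emit signal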
Bridges are numbered along the chain shown (N, C = ends). Where no end group is shown, it is not given here. [ ]: non-standard residue; d: D form. 2Nal = N[C@@H](Cc1ccc2ccccc2c1)C(=O)O; NMeR = CN[C@@H](CCCNC(=N)N)C(=O)O; NMeQ = CN[C@@H](CCC(N)=O)C(=O)O; dNMeQ = CN[C@H](CCC(N)=O)C(=O)O; Cba = N[C@@H](CC1CCC1)C(=O)O; Tle = CC(C)(C)[C@H](N)C(=O)O; S5 = C=CCCC[C@](C)(N)C(=O)O
Each record here notes measured log10 IC50.
Kindly note that the scale is log10 and the underlying IC50 is in µM.

BINDER	log10 IC50
RSLQTLRDIQRML[2Nal] [SEQ ID NO: 57]	1.13

Which measured log10 IC50 value corresponds to Ac-HRQ[NMeR]SLQTLR[S5]IQR[S5][Cba][2Nal]-NH2 (staple 11-15) [SEQ ID NO: 168] ?
-0.36

Which measured log10 IC50 value corresponds to [Cba][dNMeQ]TLR[S5]IQR[S5][Cba][2Nal] (staple 6-10; not fully specified (N-terminus, C-terminus); printed as (CBA)(N-methylQ)TLRXIQRX(CBA)(2-Nal), X/X stapled, (S) α-methyl, N-terminal Ac, C-terminal NH2) [SEQ ID NO: 114] ?
0.69

Which measured log10 IC50 value corresponds to Ac-HR[NMeQ]RSLQTLR[S5]IQR[S5][Tle][2Nal]-NH2 (staple 11-15; also: N-methylglutamine 3: D or L (filing names both)) [SEQ ID NO: 194] ?
-0.40

Which measured log10 IC50 value corresponds to Ac-LQTLR[S5]IQK[S5]L[2Nal]-NH2 (staple 6-10) [SEQ ID NO: 101] ?
1.03

Attribution: patent US20200262867A1
